Tested on: M19-MEL
Assay: NCI tumour cell line growth inhibition, 48 h
Activity calls are given as the source filed them. Cut-off read from the data, not from the text of the source: active = GI50 up to about 1.1 µM and inactive = higher.
Outcome codes: active, inactive

>  <MOLECULE>
CCOC(=O)C1S/C(=N\c2cccc(Cl)c2C)N=C1C (stereo not drawn)

>  <DISCRETE LABEL>
inactive

$$$$
>  <MOLECULE>
CC(C)(C)C1=CC(=NNC(=S)NCc2ccccc2)C=C(C(C)(C)C)C1=O

>  <DISCRETE LABEL>
inactive

$$$$
>  <MOLECULE>
COc1c(C)c(O)c2c(c1C)OC(c1ccccc1)CC2=O (stereo not drawn)

>  <DISCRETE LABEL>
inactive

$$$$
>  <MOLECULE>
COc1ccc(CCn2cncn2)cc1

>  <DISCRETE LABEL>
inactive

$$$$
>  <MOLECULE>
ClCc1ccc2ccc3ccc(CCl)nc3c2n1

>  <DISCRETE LABEL>
inactive

$$$$
>  <MOLECULE>
Cc1ccc2c(c1)NC(=O)C(N=[N+]=[N-])(c1ccccc1)C2=O (stereo not drawn)

>  <DISCRETE LABEL>
inactive

$$$$
>  <MOLECULE>
OCCCCCCOc1ccc(-c2cc(-c3ccccn3)nc(-c3ccccn3)c2)cc1

>  <DISCRETE LABEL>
active

$$$$
>  <MOLECULE>
C=C[C@H]1C=Cc2c(OC)cccc2[C@@H]1COP1(=S)NC(C)C(c2ccccc2)O1 (stereo partly drawn)

>  <DISCRETE LABEL>
inactive

$$$$
>  <MOLECULE>
CCOC(=O)/C=C/n1c2ccccc2c(=O)c2ccccc21

>  <DISCRETE LABEL>
inactive

$$$$
>  <MOLECULE>
CC(=O)OCC1OC(n2ccc(=O)[nH]c2=O)C(OC(C)=O)C(OC(C)=O)C1OC(C)=O (stereo not drawn)

>  <DISCRETE LABEL>
inactive

$$$$
>  <MOLECULE>
CC(C)CCC[C@@H](C)C1CCC2[C@@H]3CC=C4C[C@@H](OC(=O)CCC(=O)NCC[N+](C)(C)CCCS(=O)(=O)[O-])CC[C@]4(C)C3CC[C@@]21C (stereo partly drawn)

>  <DISCRETE LABEL>
inactive

$$$$
>  <MOLECULE>
[N-]=[N+]=Nc1ccc(S(=O)(=O)Oc2cc(OS(=O)(=O)c3ccc(N=[N+]=[N-])cc3)cc(OS(=O)(=O)c3ccc(N=[N+]=[N-])cc3)c2)cc1

>  <DISCRETE LABEL>
inactive

$$$$
>  <MOLECULE>
CC(=O)NC1=C(NCCO)C(=O)c2ccccc2C1=O

>  <DISCRETE LABEL>
inactive

$$$$
>  <MOLECULE>
COC1C(N)C(OC2C(Oc3cccc4c(O)c5c(=O)oc6ccc(C)c7c(=O)oc(c34)c5c67)OC(C)C(O)C2(C)O)OC(C)C1O (stereo not drawn)

>  <DISCRETE LABEL>
active

$$$$
>  <MOLECULE>
COc1cc(Br)c(/C=N\c2cccc3ccc(OS(=O)(=O)c4cccc([N+](=O)[O-])c4)cc23)cc1OC

>  <DISCRETE LABEL>
inactive

$$$$
>  <MOLECULE>
COC1(OC)CCC2C1C1CCC(OC)(OC)C21 (stereo not drawn)

>  <DISCRETE LABEL>
inactive

$$$$
>  <MOLECULE>
COc1ccc(Br)c(N/N=C2\CCCNC2=O)c1

>  <DISCRETE LABEL>
inactive

$$$$
>  <MOLECULE>
COC1=CC(=O)C2C(C1=O)[C@@H]1c3ccccc3C[C@H]21 (stereo partly drawn)

>  <DISCRETE LABEL>
inactive

$$$$
>  <MOLECULE>
CC(=O)Nc1ccc(C(=O)NN2C(=O)C(Cl)/C2=C/c2ccco2)cc1 (stereo not drawn)

>  <DISCRETE LABEL>
inactive

$$$$
>  <MOLECULE>
COc1cc(/C=C/c2ccc(/C=C/c3cc(OC)c(OC)c(OC)c3)cc2)cc(OC)c1OC

>  <DISCRETE LABEL>
inactive

$$$$
>  <MOLECULE>
C=CCCN1CCc2c([nH]c3ccccc23)C1C(=O)O (stereo not drawn)

>  <DISCRETE LABEL>
inactive

$$$$
>  <MOLECULE>
C#CC(C)(C)OCCCCOc1cc(O)c2c(=O)c3ccccc3n(C)c2c1

>  <DISCRETE LABEL>
inactive

$$$$
>  <MOLECULE>
O=C(Nc1ccccc1[N+](=O)[O-])c1ccccc1

>  <DISCRETE LABEL>
inactive

$$$$
>  <MOLECULE>
O=[N+]([O-])c1ccc(N2N=C(c3ccc(NCc4nc5ccccc5[nH]4)cc3)CC2c2ccco2)cc1 (stereo not drawn)

>  <DISCRETE LABEL>
inactive

$$$$
>  <MOLECULE>
CC(C)c1cccc(C(C)C)c1NC(=O)/C(Cc1nc2ccc(Cl)cc2nc1O)=N\NC(=O)C[N+](C)(C)C

>  <DISCRETE LABEL>
inactive

$$$$
>  <MOLECULE>
CCC1=C(C)/C(=C/c2[nH]c(C(Br)Br)c(CC)c2C)N=C1C(Br)Br

>  <DISCRETE LABEL>
inactive

$$$$
>  <MOLECULE>
CCCCSC1CCSc2c1ccc1ccccc21 (stereo not drawn)

>  <DISCRETE LABEL>
inactive

$$$$
>  <MOLECULE>
COC(=O)[C@]1(C)CCC[C@@]2(C)C1CCC1=C[C@@]3(C(C)C)CC[C@]12OO3 (stereo partly drawn)

>  <DISCRETE LABEL>
inactive

$$$$
